B1: NLV3 TCR beta chain (CDR3β only) (parent)
chain: ASSPTGGSPSPLH

- Variants of: B1
- protocol notes: T-Switch: Jurkat TCRβ−/− cells expressing a CDR3 saturation-mutagenesis library, stained with two peptide-HLA-A*02:01 tetramers (original and novel peptide) plus anti-CD3, FACS-sorted into four gates, gDNA sequenced
- particulars: with both tetramers (double-negative gate, binds neither): HLA-A*02:01 with … and with …, tetramers 1 µg/mL, 30 min on ice, SP, DP and SW gates expanded about 10 days between rounds ('two to three rounds of selection' in the Methods), gate DN: OPPOSITE: higher = more of the variant in the gate that binds neither peptide = LESS binding (or no expression; inferred). Fold enrichment of the CDR3 variant in one FACS gate of a two-tetram, unresolved parent, parent is a CDR3 fragment, scale: fold enrichment, numbering: sequential-on-construct, sequence starts at 1
recorded endpoint: enrichment
Format: numeric value only, no unit, no commentary.

Dear colleague, I am looking for the recorded enrichment of the following variant: […] (CDR3 as printed); L12H derived by comparing it with the table's wild-type CDR3 ASSPTGGSPSPLH 0.844

Next variant: […] (CDR3 as printed); P11L derived by comparing it with the table's wild-type CDR3 ASSPTGGSPSPLH 0.702

Next variant: […] (CDR3 as printed); S10C derived by comparing it with the table's wild-type CDR3 ASSPTGGSPSPLH 0.577

Next variant: […] (CDR3 as printed); G7V derived by comparing it with the table's wild-type CDR3 ASSPTGGSPSPLH 1.02

Next variant: […] (CDR3 as printed); S10W derived by comparing it with the table's wild-type CDR3 ASSPTGGSPSPLH 1.12

Next variant: […] (CDR3 as printed); G6F derived by comparing it with the table's wild-type CDR3 ASSPTGGSPSPLH 1.27

Next variant: […] (CDR3 as printed); T5N derived by comparing it with the table's wild-type CDR3 ASSPTGGSPSPLH 0.924

Next variant: […] (CDR3 as printed); T5K derived by comparing it with the table's wild-type CDR3 ASSPTGGSPSPLH 0.965

Next variant: […] (CDR3 as printed); P4S derived by comparing it with the table's wild-type CDR3 ASSPTGGSPSPLH 0.973

Next variant: […] (CDR3 as printed); S10L derived by comparing it with the table's wild-type CDR3 ASSPTGGSPSPLH 0.468

Next variant: […] (CDR3 as printed); A1K derived by comparing it with the table's wild-type CDR3 ASSPTGGSPSPLH 0.994

Next variant: […] (CDR3 as printed); G6K derived by comparing it with the table's wild-type CDR3 ASSPTGGSPSPLH 1.4

Next variant: […] (CDR3 as printed); S2K derived by comparing it with the table's wild-type CDR3 ASSPTGGSPSPLH 0.571

Next variant: […] (CDR3 as printed); P9Q derived by comparing it with the table's wild-type CDR3 ASSPTGGSPSPLH 0.777

Next variant: […] (CDR3 as printed); G7K derived by comparing it with the table's wild-type CDR3 ASSPTGGSPSPLH 1.36

Next variant: […] (CDR3 as printed); S8L derived by comparing it with the table's wild-type CDR3 ASSPTGGSPSPLH 1.58

Next variant: […] (CDR3 as printed); P4F derived by comparing it with the table's wild-type CDR3 ASSPTGGSPSPLH 1.02

Next variant: […] (CDR3 as printed); A1L derived by comparing it with the table's wild-type CDR3 ASSPTGGSPSPLH 0.861

Next variant: […] (CDR3 as printed); P4Q derived by comparing it with the table's wild-type CDR3 ASSPTGGSPSPLH 1.2

Next variant: […] (CDR3 as printed); A1P derived by comparing it with the table's wild-type CDR3 ASSPTGGSPSPLH 1.02

Next variant: […] (CDR3 as printed); T5C derived by comparing it with the table's wild-type CDR3 ASSPTGGSPSPLH 1.08

Next variant: […] (CDR3 as printed); G7W derived by comparing it with the table's wild-type CDR3 ASSPTGGSPSPLH 1.22

Next variant: […] (CDR3 as printed); T5F derived by comparing it with the table's wild-type CDR3 ASSPTGGSPSPLH 0.464

Next variant: […] (CDR3 as printed); S8R derived by comparing it with the table's wild-type CDR3 ASSPTGGSPSPLH 0.977

Next variant: […] (CDR3 as printed); L12I derived by comparing it with the table's wild-type CDR3 ASSPTGGSPSPLH 0.883

Next variant: […] (CDR3 as printed); T5D derived by comparing it with the table's wild-type CDR3 ASSPTGGSPSPLH 1.06

Next variant: […] (CDR3 as printed); P9L derived by comparing it with the table's wild-type CDR3 ASSPTGGSPSPLH 1.2

Next variant: […] (CDR3 as printed); S3C derived by comparing it with the table's wild-type CDR3 ASSPTGGSPSPLH 0.656

Next variant: […] (CDR3 as printed); P4H derived by comparing it with the table's wild-type CDR3 ASSPTGGSPSPLH 0.553

Next variant: […] (CDR3 as printed); A1C derived by comparing it with the table's wild-type CDR3 ASSPTGGSPSPLH 1.24

Next variant: […] (CDR3 as printed); T5E derived by comparing it with the table's wild-type CDR3 ASSPTGGSPSPLH 0.994

Next variant: […] (CDR3 as printed); L12E derived by comparing it with the table's wild-type CDR3 ASSPTGGSPSPLH 1.1

Next variant: […] (CDR3 as printed); L12P derived by comparing it with the table's wild-type CDR3 ASSPTGGSPSPLH 1.2

Next variant: […] (CDR3 as printed); T5H derived by comparing it with the table's wild-type CDR3 ASSPTGGSPSPLH 0.879

Next variant: […] (CDR3 as printed); P4E derived by comparing it with the table's wild-type CDR3 ASSPTGGSPSPLH 0.97

Next variant: […] (CDR3 as printed); A1T derived by comparing it with the table's wild-type CDR3 ASSPTGGSPSPLH 0.774

Next variant: […] (CDR3 as printed); S8M derived by comparing it with the table's wild-type CDR3 ASSPTGGSPSPLH 1.29

Next variant: […] (CDR3 as printed); S10M derived by comparing it with the table's wild-type CDR3 ASSPTGGSPSPLH 0.53

Next variant: […] (CDR3 as printed); S3V derived by comparing it with the table's wild-type CDR3 ASSPTGGSPSPLH 0.951

Next variant: […] (CDR3 as printed); H13G derived by comparing it with the table's wild-type CDR3 ASSPTGGSPSPLH 0.702

Next variant: […] (CDR3 as printed); H13S derived by comparing it with the table's wild-type CDR3 ASSPTGGSPSPLH 0.978

Next variant: […] (CDR3 as printed); T5V derived by comparing it with the table's wild-type CDR3 ASSPTGGSPSPLH 0.249

Next variant: […] (CDR3 as printed); P11A derived by comparing it with the table's wild-type CDR3 ASSPTGGSPSPLH 0.423

Next variant: […] (CDR3 as printed); S2V derived by comparing it with the table's wild-type CDR3 ASSPTGGSPSPLH 0.992

Next variant: […] (CDR3 as printed); T5R derived by comparing it with the table's wild-type CDR3 ASSPTGGSPSPLH 1.07

Next variant: […] (CDR3 as printed); G6P derived by comparing it with the table's wild-type CDR3 ASSPTGGSPSPLH 1.09
